Cited source for all entries: paper PMC4336329

study-system: human ether-à-go-go-related gene (hERG) potassium channel (human, UniProt Q12809)
Sequence (Q12809 whole entry, looked up): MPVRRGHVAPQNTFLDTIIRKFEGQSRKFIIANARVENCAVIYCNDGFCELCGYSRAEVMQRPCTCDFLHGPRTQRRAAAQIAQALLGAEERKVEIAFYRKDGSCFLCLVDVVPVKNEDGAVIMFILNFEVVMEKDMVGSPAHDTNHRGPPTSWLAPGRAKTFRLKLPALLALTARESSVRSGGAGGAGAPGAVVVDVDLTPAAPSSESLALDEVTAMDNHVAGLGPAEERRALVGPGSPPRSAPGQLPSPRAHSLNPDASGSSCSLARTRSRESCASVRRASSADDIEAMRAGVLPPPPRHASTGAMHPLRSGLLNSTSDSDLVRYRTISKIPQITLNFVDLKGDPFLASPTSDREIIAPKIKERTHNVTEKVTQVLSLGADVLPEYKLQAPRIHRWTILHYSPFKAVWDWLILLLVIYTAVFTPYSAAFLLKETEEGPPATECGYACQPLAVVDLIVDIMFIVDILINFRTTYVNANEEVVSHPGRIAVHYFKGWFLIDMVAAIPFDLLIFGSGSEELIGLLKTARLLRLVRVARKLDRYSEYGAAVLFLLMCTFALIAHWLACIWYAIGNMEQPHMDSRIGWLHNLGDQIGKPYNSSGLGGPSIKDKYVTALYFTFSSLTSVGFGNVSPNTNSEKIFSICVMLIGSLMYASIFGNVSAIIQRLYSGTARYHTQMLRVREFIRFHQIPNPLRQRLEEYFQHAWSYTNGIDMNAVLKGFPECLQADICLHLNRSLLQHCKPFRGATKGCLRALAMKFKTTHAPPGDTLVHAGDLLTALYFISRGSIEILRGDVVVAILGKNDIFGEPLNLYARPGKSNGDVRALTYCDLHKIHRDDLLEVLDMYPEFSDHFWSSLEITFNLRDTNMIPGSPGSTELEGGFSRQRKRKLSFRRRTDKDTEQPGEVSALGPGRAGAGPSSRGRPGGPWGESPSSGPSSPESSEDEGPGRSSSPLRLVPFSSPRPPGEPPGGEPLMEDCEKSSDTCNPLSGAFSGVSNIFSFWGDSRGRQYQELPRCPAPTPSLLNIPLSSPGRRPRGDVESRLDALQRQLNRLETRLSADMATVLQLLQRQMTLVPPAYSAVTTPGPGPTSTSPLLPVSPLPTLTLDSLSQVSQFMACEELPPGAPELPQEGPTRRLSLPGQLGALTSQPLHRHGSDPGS
assay-remarks: primary screen, population patch clamp on CHO cells stably expressing hERG; higher = less effect of the substance
Screen size: about 310,000 compounds; about 14,000 (4.5%) showed an effect of 50% or more. The effect is printed as a negative number. The full list was thinned out, with strong results kept by preference.
parameter: hERG current change (%, negative = inhibition) at 10uM (%)
Please state the figure in %; there is no need to write the unit.

Consider the worked cases shown below.
{"columns": ["molecule", "study-system", "reported-result"],
 "data": [
  ["O=C1N(Cc2cccc(Cl)c2)C[C@@H]2C[C@@H](c3ccccn3)N3CCC[C@@]123", "human ether-à-go-go-related gene (hERG) potassium channel (human, UniProt Q12809)", -18.5],
  ["COc1ccc(C2NC(=O)CCC2[N+](=O)[O-])c(OC)c1OC (stereo not shown)", "human ether-à-go-go-related gene (hERG) potassium channel (human, UniProt Q12809)", 12.2],
  ["OC(COCc1ccco1)CN1CCN(C(c2ccccc2)c2ccccc2)CC1 (stereo not shown)", "human ether-à-go-go-related gene (hERG) potassium channel (human, UniProt Q12809)", -73.4],
  ["CC(=O)c1ccccc1OCC(O)CN1CCN(c2ccccn2)CC1.Cl (stereo not shown)", "human ether-à-go-go-related gene (hERG) potassium channel (human, UniProt Q12809)", -39],
  ["CCC(=O)c1ccc(OCC(O)Cn2nc(C)cc2C)cc1 (stereo not shown)", "human ether-à-go-go-related gene (hERG) potassium channel (human, UniProt Q12809)", -7.44],
  ["COc1ccccc1/C=C/[C@@H]1C[C@H]2CN(Cc3cccc(Cl)c3)C(=O)[C@]23CCCN13", "human ether-à-go-go-related gene (hERG) potassium channel (human, UniProt Q12809)", -75.4],
  ["OC(CN1CCN(C(c2ccccc2)c2ccccc2)CC1)c1ccccc1 (stereo not shown)", "human ether-à-go-go-related gene (hERG) potassium channel (human, UniProt Q12809)", -30.8],
  ["Cc1cccc2nc(CSCc3ccco3)cn12", "human ether-à-go-go-related gene (hERG) potassium channel (human, UniProt Q12809)", -2.01]
]}

Problem: Looking for the measured hERG current change (%, negative = inhibition) at 10uM of `CCOc1ccccc1C(=O)N1CCN(C(c2ccccc2)c2ccccc2)CC1` , can you help?
Solution: 0.314

Problem: Same read-out for `COc1cccc2c1OCC([C@@H]1C[C@H]3CN(Cc4cccc(Cl)c4)C(=O)[C@]34CCCN14)=C2` ?
Solution: -45.2

----------
study-system: human ether-à-go-go-related gene (hERG) potassium channel (human);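 note: peak tail current of the secondary pulse compared with the same well before compound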
assay-remarks: primary screen, population patch clamp on CHO cells stably expressing hERG; higher = less effect of the substance
About 14,000 (4.5%) of roughly 310,000 compounds showed an effect of 50% or more. The effect is printed as a negative number. For the sample, strong results were picked, then their nearest neighbours and some compounds at random.
Measured hERG current change (%, negative = inhibition) at 10uM values are reported for all entries that follow.
Give a bare numeral; the unit % is implied.

Problem: # hERG current change (%, negative = inhibition) at 10uM lookup, item Cc1ccccc1OCC(O)Cn1nnc2ccccc21 (stereo not shown)
Solution: 5.21

Problem: Next molecule: `O=C(Nc1ccccc1C(=O)NCCCn1ccnc1)c1ccc(Cl)cc1Cl`
Solution: -47.1

Problem: Next: `COCc1nnc(NC(=O)CCCOc2ccccc2OC)s1`
Solution: 9.6

Problem: And then COc1ccc(C(=O)C2CCCN(C(=O)c3cccc(Cn4cccn4)c3)C2)cc1F (stereo not shown) , what is it?
Solution: -14.5

Problem: Would you mind doing `CCCCCCCCCCOC(=O)Cn1c(COc2cccc(C)c2)[n+](C)c2ccccc21.[Cl-]` as well?
Solution: -76

Problem: // same read-out, input: `CCn1c(/C=C/N(C(C)=O)c2ccccc2)[n+](CCCS(=O)(=O)[O-])c2cc(Cl)c(Cl)cc21`
Solution: 19.9

Problem: Would you mind doing COc1ccc(CN2CCCC(C(=O)c3cccc(OC(C)C)c3)C2)cc1Cn1cccn1 (stereo not shown) as well?
Solution: -69.9

Problem: Try `CC(=O)Nc1ccc(S(=O)(=O)N2CCCN(S(=O)(=O)c3ccc(NC(C)=O)cc3)CC2)cc1` next.
Solution: -0.406

----------
study-system: human ether-à-go-go-related gene (hERG) potassium channel (human, UniProt Q12809);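 note: peak tail current of the secondary pulse compared with the same well before compound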
assay-remarks: primary screen, population patch clamp on CHO cells stably expressing hERG; higher = less effect of the substance
Out of some 310,000 compounds screened, about 14,000 (4.5%) showed an effect of 50% or more. The effect is printed as a negative number. This excerpt belongs to a sample that is enriched for strong results.
parameter: hERG current change (%, negative = inhibition) at 10uM (%)
Answer format: numeric, % implied, no suffix.

{"columns": ["compound", "reported-result"],
 "data": [
  ["O=C(NCc1ccccc1)c1ccc2nnsc2c1", -1.17],
  ["O=C(C1CCCN(S(=O)(=O)c2ccccc2)C1)N1CCN(c2ccc(F)cc2)CC1 (stereo not drawn)", -75.7],
  ["O=C(NC1CC2CCCC(C1)N2Cc1cccs1)N1CCOCC1 (stereo not drawn)", -6.2],
  ["CN1C2CCC1CC(NC(=O)c1ccc([N+](=O)[O-])cc1)C2 (stereo not drawn)", 3.81],
  ["COc1ccc(-c2csc(NC(=O)c3ccc(C(C)(C)C)cc3)c2C(=O)O)cc1", 24.9],
  ["O=C(c1cccs1)N(Cc1cc2ccccc2[nH]c1=O)c1ccccc1", -11.8],
  ["COc1ccc(S(=O)(=O)N2CCCC(C(=O)N3CCOCC3)C2)cc1Cl (stereo not drawn)", -14],
  ["O=C(NC1CC2CCCC(C1)N2Cc1cccs1)c1ccc([N+](=O)[O-])cc1 (stereo not drawn)", -84.3]
]}

Could you now look at the following compound, please?
Problem: Requested field: hERG current change (%, negative = inhibition) at 10uM. Item: `O=C1N(CCCCN2C(=O)C3(OCCO3)c3ccccc32)c2ccccc2C12OCCO2`
Solution: 6.9

----------
study-system: human ether-à-go-go-related gene (hERG) potassium channel (human);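 note: peak tail current of the secondary pulse compared with the same well before compound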
assay-remarks: primary screen, population patch clamp on CHO cells stably expressing hERG; higher = less effect of the substance
In all, about 310,000 compounds went through this assay and about 14,000 (4.5%) showed an effect of 50% or more. The effect is printed as a negative number. The sample as a whole holds a higher share of strong results than the screen did.
parameter: hERG current change (%, negative = inhibition) at 10uM (%)
Give your result in % as a bare value.

{"columns": ["compound", "reported-result"],
 "data": [
  ["Cc1ccc(OCC(=O)Nc2ccc(S(=O)(=O)N3CCCC3)cc2)cc1", 15.5],
  ["CC(C)n1cnnc1SCC(=O)NCC(=O)Nc1ccc(F)cc1", 11.2],
  ["CC(C)(C)c1nn(-c2ccccc2)c2[nH]c(=O)c(CNc3ccc4c(c3)OCCO4)cc12", -4.99]
]}

In the following, a different compound is considered.
Problem: I'd like to know its hERG current change (%, negative = inhibition) at 10uM. The compound in question is CCC1CCCCN1C(=O)COC(=O)CN(C)S(=O)(=O)c1ccc(NC(C)=O)cc1 (stereo not drawn)
Solution: 7.22

----------
study-system: human ether-à-go-go-related gene (hERG) potassium channel (human, UniProt Q12809);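 note: peak tail current of the secondary pulse compared with the same well before compound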
assay-remarks: primary screen, population patch clamp on CHO cells stably expressing hERG; higher = less effect of the substance
Among all 310,000 compounds or so, about 14,000 (4.5%) showed an effect of 50% or more. The effect is printed as a negative number. For the sample, strong results were picked, then their nearest neighbours and some compounds at random.
I would appreciate it if you labelled entries 1 when hERG current change (%, negative = inhibition) at 10uM is -40% or higher, otherwise -1.

Please review the entries below; each comes with its answer.
{"columns": ["compound", "study-system", "group"],
 "data": [
  ["COc1cc2nc(N3CCN(C(=O)c4ccco4)CC3)nc(N)c2cc1OC.Cl", "human ether-à-go-go-related gene (hERG) potassium channel (human, UniProt Q12809)", 1],
  ["O=C(c1cc(-c2ccncc2)nc2ccc(Br)cc12)N1CCN(c2ccccn2)CC1", "human ether-à-go-go-related gene (hERG) potassium channel (human, UniProt Q12809)", 1],
  ["COc1ccc(S(=O)(=O)N2CC(=O)Nc3ccccc32)cc1", "human ether-à-go-go-related gene (hERG) potassium channel (human, UniProt Q12809)", 1],
  ["Cc1ccc([N+](=O)[O-])cc1NC(=O)c1ccc2c(c1)OCO2", "human ether-à-go-go-related gene (hERG) potassium channel (human, UniProt Q12809)", 1],
  ["O=C(NNS(=O)(=O)c1ccccc1)C1CCCCC1", "human ether-à-go-go-related gene (hERG) potassium channel (human, UniProt Q12809)", 1],
  ["O=C(c1cc(-c2ccncc2)nc2ccc(Cl)cc12)N1CCN(Cc2ccc3c(c2)OCO3)CC1", "human ether-à-go-go-related gene (hERG) potassium channel (human, UniProt Q12809)", -1],
  ["Cl.Nc1nc(N2CCN(C(=O)c3ccco3)CC2)nc2ccc(Br)cc12", "human ether-à-go-go-related gene (hERG) potassium channel (human, UniProt Q12809)", -1],
  ["CCOC(=O)c1c(C)n(C)c2ccc(OCC(O)CNC(CC)CO)cc12 (stereo not drawn)", "human ether-à-go-go-related gene (hERG) potassium channel (human, UniProt Q12809)", 1]
]}

As a next step, examine the compound that follows.
Problem: Decide: hERG current change (%, negative = inhibition) at 10uM of COc1cccc(CN2CCNC(=O)C2CC(=O)N(C)CCC2CCOCC2)c1 (stereo not drawn) >= -40%?
Solution: 1
